Test system: MS2 coat protein
Assay: apparent KD of MS2 coat protein; designed switch direction (-1 OFF switch, 1 ON switch): -1; higher = weaker reporter binding
Conditions: Eterna round: R95; input ligand: FMN 200 uM

>  <biopolymer sequence>
GGUUGGCGAGGAUAUACAUGAGGAUCACCCAUGUGAGAGAAAUAAGUGAGGAAGAAAAGUAGAAGGCGCUGACG [salish99_ex3_r3_014] (puzzle: Exclusion 3)

>  <output unit>
nM

>  <apparent KD of MS2 coat protein>
222

$$$$
>  <biopolymer sequence>
AAAUAACAAGCGAGAUCCUACAUGAGGAUCACCCAUGUGCUCGUCUUAACAAGUACUAUCACGAAAGUGAUAGUACA [Mat - Sensor v3 - turn-off var 1 - Eli Mod - D69] (puzzle: Sensor v3, turn-off variant 1)

>  <output unit>
nM

>  <apparent KD of MS2 coat protein>
17.5

$$$$
>  <biopolymer sequence>
GCCAGAGCAGGAUAUUCAAUAUCUCACAUGAGGAUCACCCAUGUCCAGCGAAAGCUGGAGGGAGAAGGGCUCUGGC [Fiskers Ex 5 - 9] (puzzle: Exclusion 5)

>  <output unit>
nM

>  <apparent KD of MS2 coat protein>
42.1

$$$$
>  <biopolymer sequence>
GAAUAGGUAGGAUAUACGAAAAAAAAGGGUAGAAAAAAAACACAUGAGGAUCACCCAUGUAGAAGGACCAAAAG [salish99_ex2_r3_089] (puzzle: Exclusion 2)

>  <output unit>
nM

>  <apparent KD of MS2 coat protein>
68.6

$$$$
>  <biopolymer sequence>
GAUUGACAUGAGGAUCACCCAUGUGAGGAUAUCGGCUGGACCGUGUUGGCUUGCUUUUCGAGAAGGCGCAUAGG [Exclusion 1 V49] (puzzle: Exclusion 1)

>  <output unit>
nM

>  <apparent KD of MS2 coat protein>
55

$$$$
>  <biopolymer sequence>
AGUAACUAUCACGAAAGUGAUAGUUACAAACAAGUGGAAACAUGAGGAUCACCCAUGUCCUCAUUUGCUCGUCUUAU [Sensor 3 - 6] (puzzle: Sensor v3, turn-off variant 2)

>  <output unit>
nM

>  <apparent KD of MS2 coat protein>
574

$$$$
>  <biopolymer sequence>
ACAAGCUUUUUGCAUGUUAGUUUUGUUGCUUCGUAUGUAACAUGAGGAUCACCCAUGUAAGACUGAUGUCGUCGUUU [JR_SV3TOV2_Sub088] (puzzle: Sensor v3, turn-off variant 2)

>  <output unit>
nM

>  <apparent KD of MS2 coat protein>
44.9

$$$$
>  <biopolymer sequence>
AGACAGUCAGGAUAUACAUGAGGAUCACCCAUGUUGAGAUGAGAAAGGGCAGGAAGAGGUAGAAGGGACAAGAA [JR_Exclu3_Sub035] (puzzle: Exclusion 3)

>  <output unit>
nM

>  <apparent KD of MS2 coat protein>
28.3

$$$$

Reference source for all entries: the supplement of paper PMC9170038
